system: HeLa MZ; test: filipin (cholesterol) integrated intensity within LBPA endosomes, Z-score; higher = more cholesterol in LBPA endosomes; details: compound concentration in added solution (µM; 5 µl added to 20 µl cells): 10; 18 h
Structures can show the parent of a compound that is named as a salt.
So I've got a bunch of compounds here, and I need their filipin (z-score) values.
Numbers only.

Reference set, count: 5
compound="CN(C)CCCN1c2ccccc2Sc2ccc(C(F)(F)F)cc21 [Triflupromazine hydrochloride]" reported_result=2.87
compound="CC[N+](C)(CC)CCC[n+]1c(-c2ccccc2)c2cc(N)ccc2c2ccc(N)cc21 [Propidium iodide]" reported_result=-0.527
compound="CC(C)NCC(O)COc1ccc(CCOCC2CC2)cc1 (stereo not drawn) [Betaxolol hydrochloride]" reported_result=0.292
compound="CN(CCCCCCCCCCN(C)C(=O)Oc1cccc([N+](C)(C)C)c1)C(=O)Oc1cccc([N+](C)(C)C)c1 [Demecarium bromide]" reported_result=-0.595
compound="CCN(CC)CCNC(=O)COc1ccc(OC)cc1 [Mefexamide hydrochloride]" reported_result=-0.36

Please report filipin (z-score) for every entry that follows.
1. O=C1NCC2(CCN(CCc3ccccc3)CC2)O1 [Fenspiride hydrochloride]
2. CCC1(c2ccccc2)C(=O)NCNC1=O
3. CCCCC(C)(O)C/C=C/[C@H]1[C@H](O)CC(=O)[C@@H]1CCCCCCC(=O)OC (mixture of isomers)
4. c1ccc([C@H]2CN3CCSC3=N2)cc1 [Levamisole hydrochloride]
5. NS(=O)(=O)c1cc2c(cc1C(F)(F)F)NCNS2(=O)=O [Hydroflumethiazide]
6. CCCCOc1ccc(CC(=O)NO)cc1

RESULT:
-0.493
-0.574
-0.608
-0.182
-0.522
-0.483

Please state, for each entry, its recorded filipin (z-score).
1. CC[C@H](C)C(=O)O[C@H]1CCC=C2C=C[C@H](C)[C@H](CC[C@@H]3C[C@@H](O)CC(=O)O3)[C@H]21
2. CN(C)CCCN1c2ccccc2Sc2ccc(Cl)cc21 [Chlorpromazine hydrochloride]
3. COc1ccc(-c2cc(=O)c3c(O)cc(O[C@@H]4O[C@H](CO[C@@H]5O[C@@H](C)[C@H](O)[C@@H](O)[C@H]5O)[C@@H](O)[C@H](O)[C@H]4O)cc3o2)cc1O
4. Nc1c2c(nc3ccccc13)CCCC2 [Tacrine hydrochloride]
5. CCSc1ccc2c(c1)N(CCCN1CCN(C)CC1)c1ccccc1S2 [Thiethylperazine dimalate]
6. COc1ccc(-c2cc(=S)ss2)cc1
7. CCCOc1ccccc1-c1nc2[nH]nnc2c(=O)[nH]1
8. Nc1nc2c(ncn2COCCO)c(=O)[nH]1

RESULT:
1. -0.0775
2. 1.67
3. -0.715
4. 0.583
5. 1.79
6. -0.257
7. -0.401
8. -0.66

State the recorded filipin (z-score) for every item in the following list.
1. O=C1OC(CN2CCOCC2)CN1/N=C/c1ccc([N+](=O)[O-])o1 (stereo not drawn) [Furaltadone hydrochloride]
2. Cc1cc(CC(=O)O)n(C)c1C(=O)c1ccc(Cl)cc1 [Zomepirac sodium salt]

RESULT:
1: -0.666; 2: -0.439

For each of the compounds below, note its filipin (z-score).
1. O=C(NCCO[N+](=O)[O-])c1cccnc1
2. C#CCN(C)CCCOc1ccc(Cl)cc1Cl [Clorgyline hydrochloride]
3. CN(C/C=C/c1ccccc1)Cc1cccc2ccccc12 [Naftifine hydrochloride]

RESULT:
-0.545
-0.359
-0.339
